The values you see were collected from ChEMBL document CHEMBL1240520.

- System: Aorta
- protocol: Vasorelaxant activity in Wistar rat aortic rings assessed as reduction in KCL-induced contractile tone
- Type: functional, tissue-based
Listing of entries alongside the reported IC50.
recorded metric: IC50 (µM)

compound | target entity | assay value
Oc1cc(O)cc(-c2cc3cc(O)ccc3o2)c1 | Aorta | 15.5
Oc1ccc(/C=C/c2cc(O)cc(O)c2)cc1 [RESVERATROL] | Aorta | 6.92
Oc1ccc(-c2nc3c(O)cc(O)cc3s2)cc1 | Aorta | 12.6
Oc1cc(O)cc(-c2cc3ccc(O)cc3nc2Cl)c1 | Aorta | 15.8
Oc1cc(O)cc(-c2ccc3cc(O)ccc3c2)c1 | Aorta | 12.9
Oc1cc(O)cc(-c2nc3cccc(O)c3s2)c1 | Aorta | 15.5
Oc1cc(O)cc(-c2nc3ccc(O)cc3s2)c1 | Aorta | 12
